System: platelets (platelet aggregation)
Test: Platelet aggregation inhibition (gel-filtered platelets, thrombin or ADP agonist, aggregometer)
Format: cell-based
Conditions: Platelet, 50 μM compound, 37° C., three minutes
Method: The percentage of platelet aggregation is calculated as an increase in light transmission of drug treated platelet concentrate vs control treated platelet concentrate. […] Aggregation is monitored in a dual channel Chrono-log Aggregometer for three minutes following the addition of agonist (thrombin 50 μL of 1 unit/mL, or ADP 50 μL of 100 μM). […] The peak aggregation response is calculated as the increase in light transmission units over a three minute period. […]

| Smiles | inhibition at 50 µM |
| --- | --- |
| O=C(NCCCN1CCCCCC1)c1cnc(Nc2nc(-c3cccc(C(F)(F)F)c3)cs2)nc1C(F)(F)F | 95% |
| Cc1sc(Nc2ncc(C(=O)NCCCNC3CCCCC3)c(C(F)(F)F)n2)nc1-c1ccccc1 | 58% |
| COc1ccc(-c2csc(Nc3ncc(C(=O)NCCCN(C)C)c(C(F)(F)F)n3)n2)cc1 | 96% |
| CCN(CC)CCCNC(=O)c1cnc(Nc2nc(-c3ccc(C)cc3)cs2)nc1C(F)(F)F | 75% |
| O=C(NCCCNC1CCCC1)c1cnc(Nc2nc(-c3cccc(C(F)(F)F)c3)cs2)nc1C(F)(F)F | 85% |
| O=C(NCCCn1ccnc1)c1cnc(Nc2nc(-c3cccc(C(F)(F)F)c3)cs2)nc1C(F)(F)F | 55% |

----------
System: platelets (platelet aggregation)
Experiment: Platelet aggregation inhibition (gel-filtered platelets, thrombin or ADP agonist, aggregometer)
Format: cell-based
Settings: Platelet, 50 μM compound, 37° C., three minutes
Some compounds, each annotated with its measured inhibition at 50 µM.

| Smiles | inhibition at 50 µM |
| --- | --- |
| CN1CCN(CCCNC(=O)c2cnc(Nc3nc(-c4cccc(C(F)(F)F)c4)cs3)nc2C(F)(F)F)CC1 | 90% |
| O=C(NCCCNC1CCCCC1)c1cnc(Nc2nc(-c3cccc(C(F)(F)F)c3)cs2)nc1-c1ccccc1 | 25% |
| O=C(NCCCN1CCCCCC1)c1cnc(Nc2nc(-c3cccc(Cl)c3)cs2)nc1C(F)(F)F | 98% |
| CCCCNCCCNC(=O)c1cnc(Nc2nc(-c3cccc(C(F)(F)F)c3)cs2)nc1C(F)(F)F | 96% |
| CCCCNCCCNC(=O)c1cnc(Nc2nc(-c3ccc(C)cc3)cs2)nc1C(F)(F)F | 36% |
| O=C(NCCCN1CCCC1=O)c1cnc(Nc2nc(-c3cccc(C(F)(F)F)c3)cs2)nc1C(F)(F)F | 25% |
| CCCNCCCNC(=O)c1cnc(Nc2nc(-c3cccc(Cl)c3)cs2)nc1C(F)(F)F | 96% |
| O=C(NCCCN1CCCCC1)c1cnc(Nc2nc(-c3cccc(Cl)c3)cs2)nc1C(F)(F)F | 94% |
